- test-name: Elimination half life in Sprague-Dawley rat at 500 mg/kg, po by LC-MS/MS analysis
- Assay type: ADME, organism-based
- condition-label: in vivo, read-out: beta t1/2
endpoint-label: half-life (min)
Express your answer in min, writing the number without its unit.

Sample COc1cc(/C=C/C(=O)CC(=O)/C=C/c2ccc(O)c(OC)c2)ccc1O ; half-life observed: 44.5
